Measured <Tm> (°C)^a accompanies every entry in the list below.
# study.target: MrpH159 (MrpHntd) (Proteus mirabilis, UniProt B4EUK6)
# Construct: gene mrpH; pEXP5-CT/TOPO (His-tag, Ni-NTA, no cleavage told); expressed in E. coli BL21-AI
# Sequence (B4EUK6 entry or part of it): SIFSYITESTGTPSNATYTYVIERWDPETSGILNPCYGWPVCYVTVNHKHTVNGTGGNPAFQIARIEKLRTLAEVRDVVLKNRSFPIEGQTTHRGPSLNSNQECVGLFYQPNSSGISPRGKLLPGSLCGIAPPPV
# Format: binding
# setup.conditions: 10 mM ligand, 10 uM protein, 24 mM NaCl, 6 mM HEPES pH 7.5; reference storage buffer 65.2±0.30 °C
Counter-ions that a name gives are not always drawn.
Field format: number, assumed °C, no unit text.

Observe how each entry below is paired with its result.
>>> print(df.to_string())
                                   molecule      readout  obs_value
0  O=C(O)C(O)C(O)C(=O)O (stereo not shown) [tartrate]  <Tm> (°C)^a       80.1
1                     O=CO [Sodium formate]  <Tm> (°C)^a       68.4
2                  CC(=O)O [Sodium acetate]  <Tm> (°C)^a       76.3

Now for the molecule whose <Tm> (°C)^a we want.
Recall the reported <Tm> (°C)^a of N[C@@H](CCC(=O)O)C(=O)O [glutamic acid] when tested on MrpH159 (MrpHntd) (Proteus mirabilis, UniProt B4EUK6).
73.1
